Assay Comment: Tissue distribution of zonarol after intravenous administration in mice
Type: in vivo
Experimental Conditions: mouse, kidney, iv, 10 mg/kg, i.v. 10 mg/kg, 15 min after administration, n = 7, mean ± SD, read-out: zonarol content in kidney (highest)
Readout Label: concentration at 15 min (ng/g)
One number for each entry, in ng/g.

Record summary for C=C1CC[C@@H]2C(C)(C)CCC[C@@]2(C)[C@@H]1Cc1cc(O)ccc1O : reported concentration at 15 min = 1910

----------
Assay Comment: Plasma concentration of zonarol after oral or intravenous administration in mice (HPLC-FI, non-compartmental analysis)
Assay type: in vivo
Experimental Conditions: male, ddY, mouse, plasma, iv, i.v. 10 mg/kg, 5 min
Readout Label: concentration at 5 min (ng/mL)
Give bare numbers, in ng/mL.

The compound C=C1CC[C@@H]2C(C)(C)CCC[C@@]2(C)[C@@H]1Cc1cc(O)ccc1O showed concentration at 5 min equal to 878

----------
Assay Comment: Plasma concentration of zonarol after oral or intravenous administration in mice (HPLC-FI, non-compartmental analysis)
Format: in vivo
Experimental Conditions: male, ddY, mouse, plasma, oral, (p.o. AUC/p.o. dose)/(i.v. AUC/i.v. dose) × 100, p.o. 100 mg/kg, i.v. 10 mg/kg
Procedure: HPLC analysis was carried out on a Shimadzu-20A series instrument (Shimadzu, Japan) connected to a fluorescence detector (RF-10A xl, Shimadzu, Japan). The signals from the fluorescence system were transmitted to LC Solution software for the purposes of analyzing and calculating the peak areas. Chromatographic separation was carried out on an RPAQUEOUS-AR-5 (4.6 × 250 mm) column. […] Data were expressed as the mean ± standard deviation (SD) for the in vitro and the animal experiments. […]
Readout Label: bioavailability (%)
Numbers only, in %.

bioavailability for C=C1CC[C@@H]2C(C)(C)CCC[C@@]2(C)[C@@H]1Cc1cc(O)ccc1O is 25

----------
Assay Comment: Tissue distribution of zonarol after intravenous administration in mice
Assay type: in vivo
Experimental Conditions: mouse, brain, iv, 10 mg/kg, bolus i.v. 10 mg/kg BW, 30 min, read-out: maximal distribution of zonarol in the brain
Readout Label: concentration at 30 min (ng/g)
Give bare numbers, in ng/g.

Memo: C=C1CC[C@@H]2C(C)(C)CCC[C@@]2(C)[C@@H]1Cc1cc(O)ccc1O , reported concentration at 30 min: 2520

----------
Assay Comment: Tissue distribution of zonarol after intravenous administration in mice
Type: in vivo
Experimental Conditions: mouse, liver, iv, 10 mg/kg, i.v. 10 mg/kg, 15 min after administration, n = 7, mean ± SD, read-out: zonarol content in liver (highest)
Readout Label: concentration at 15 min (ng/g)
Numbers only, in ng/g.

Noted for C=C1CC[C@@H]2C(C)(C)CCC[C@@]2(C)[C@@H]1Cc1cc(O)ccc1O : its concentration at 15 min reads 1320

----------
Assay Comment: Plasma concentration of zonarol after oral or intravenous administration in mice (HPLC-FI, non-compartmental analysis)
Assay type: in vivo
Experimental Conditions: male, ddY, mouse, plasma, po, p.o. 100 mg/kg, n = 5, mean ± SD
Method: HPLC analysis was carried out on a Shimadzu-20A series instrument (Shimadzu, Japan) connected to a fluorescence detector (RF-10A xl, Shimadzu, Japan). The signals from the fluorescence system were transmitted to LC Solution software for the purposes of analyzing and calculating the peak areas. Chromatographic separation was carried out on an RPAQUEOUS-AR-5 (4.6 × 250 mm) column. […] Data were expressed as the mean ± standard deviation (SD) for the in vitro and the animal experiments. […]
Readout Label: Cmax
Remember to put the unit after the number in your answer.

// sample C=C1CC[C@@H]2C(C)(C)CCC[C@@]2(C)[C@@H]1Cc1cc(O)ccc1O , its Cmax was 723 ng/mL
